# TARGET: Histamine H1 receptor (Cavia porcellus)
# ASSAY_REMARKS: Contractile effects antagonized by mepyramine (0.3-100 nM) against Histamine H1 receptor in guinea pig ileum
# Assay type: functional, tissue-based
# EXPERIMENTAL_PARAMETERS: read-out: pA2 (converted)
TEST_READOUT: Kb (nM)

A. CN(C)CCc1c[nH]c(-c2cccc(C(F)(F)F)c2)n1
B. CNCCc1c[nH]c(-c2cccc(Br)c2)n1
Incoming: Min Kb? A | B # reply format: chosen label
Outgoing: B

* * *

# TARGET: Histamine H1 receptor (Cavia porcellus) (UniProt P31389)
# Sequence (P31389 whole entry): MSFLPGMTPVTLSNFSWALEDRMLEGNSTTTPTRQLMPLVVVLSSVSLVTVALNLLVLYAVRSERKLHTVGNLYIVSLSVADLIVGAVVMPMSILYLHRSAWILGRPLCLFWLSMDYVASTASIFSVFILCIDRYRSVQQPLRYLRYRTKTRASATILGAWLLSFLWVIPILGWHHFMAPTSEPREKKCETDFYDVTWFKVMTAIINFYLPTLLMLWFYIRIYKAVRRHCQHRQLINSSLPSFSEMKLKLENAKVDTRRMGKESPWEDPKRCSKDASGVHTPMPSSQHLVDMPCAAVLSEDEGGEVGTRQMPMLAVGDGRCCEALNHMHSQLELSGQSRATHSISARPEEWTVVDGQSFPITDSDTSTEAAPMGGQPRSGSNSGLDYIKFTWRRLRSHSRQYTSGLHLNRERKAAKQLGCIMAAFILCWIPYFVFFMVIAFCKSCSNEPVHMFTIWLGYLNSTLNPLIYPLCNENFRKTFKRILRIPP
# ASSAY_REMARKS: Relative potency against Histamine H1 receptor of guinea pig aorta
# Assay type: functional, tissue-based
TEST_READOUT: Relative potency (%)

Known Relative potency results, listed for orientation:
[[record]]
smi = "CN(C)CCc1c[nH]c(-c2cccc(C(F)(F)F)c2)n1"
measurement = 169

[[record]]
smi = "CNCCc1c[nH]c(-c2cccc(Br)c2)n1"
measurement = 43


A. CNCCc1c[nH]c(-c2cccc(C(F)(F)F)c2)n1
B. CN(C)CCc1c[nH]c(-c2cccc(Br)c2)n1
C. NCCc1c[nH]c(-c2cccc(C(F)(F)F)c2)n1
Incoming: Task field, ranking: reported Relative potency, descending order. Lab note: record answer as labels in requested order.
Outgoing: A, C, B
(A: 217%, C: 94%, B: 31%)
